Values compiled from ChEMBL document CHEMBL1201862.

# System: HOP-92
# Assay method text: NCI tumour cell line growth inhibition, 48 h
The source made the active and inactive calls. Rule as the data show it: active = GI50 up to about 1.1 µM and inactive = higher.
Output constraint: value belongs to true (active), false (inactive)

Sample answers from the record:
Cc1cccc(-c2nc(-c3cnccn3)n(Cc3ccccc3)n2)c1 ... false
O=c1[nH]c(=O)n(C2OC(CO)C(O)C2O)cc1OCc1ccccc1 (stereo not given) ... false
CC(=O)OC1C2CCC1C1C2C2(Cl)C(Cl)=C(Cl)C1(Cl)C2(Cl)Cl (stereo not given) ... false

**Query** Field: outcome | Entry: COC(=O)c1cc(CNCCc2c[nH]c3ccccc23)on1
**Result** false

**Query** Please indicate how the test categorized Cc1nc2cc([N+](=O)[O-])ccc2c(NCCCN(C)C)c1C .
**Result** false

**Query** // return assay outcome for CCOC(=O)c1c(Br)c(-c2ccc(Br)cc2)c(Br)n1C
**Result** false

**Query** Would you mind telling me which call this test gave COC1/C=C/OC2(C)Oc3c(C)c(O)c4c(c3C2=O)C(=O)C=C(NC(=O)/C(C)=C\C=C\C(C)C(OC=O)C(C)C(O)C(C)C(OC(C)=O)C1C)C4=O (stereo not given) ?
**Result** false

**Query** Dear all, I need the recorded test outcome for CC(C)CC1c2[nH]c3ccccc3c2C[C@H]2C(=O)NC(Cc3c[nH]c4ccccc34)C(=O)N12 (stereo not given in full) , thank you.
**Result** false

**Query** What outcome does the record of this test show for CCN(CC)CCN(C)c1ccc(CO)c2c1c(=O)c1ccccc1[s+]2[O-] (stereo not given) ?
**Result** false

**Query** Each compound tested received a call. Report the one for CN(C)CCNC1=C(Cl)C(=O)c2c(O)ccc(O)c2C1=O .
**Result** false

* * *

# System: HT-29
# Assay method text: NCI tumour cell line growth inhibition, 48 h
The source made the active and inactive calls. Cut-off read from the data, not from the text of the source: active = GI50 up to about 1.1 µM and inactive = higher.
Returns: one label drawn from active, inactive

Worked examples, 3 compounds total:
C/C(=N\NC(=S)N1CCC(N2CCCCC2)CC1)c1ccccn1 ... inactive
c1cncc(C(Nc2cccc3cccnc23)Nc2cccc3cccnc23)c1 ... inactive
CC1(C=O)CCC23COC4(CCC5C6(C)CCC(OC7OCC(OC8OC(CO)C(O)C(OC9OC(CO)C(O)C(O)C9O)C8OC8OCC(O)C(O)C8O)C(O)C7OC7OC(CO)C(O)C(O)C7O)C(C)(C)C6CCC5(C)C4(C)CC2O)C3C1 (centres undefined) ... active

**Query** What did the test return for COC(=O)C1=C(C)NC(=O)N2[C@@H](CCOCc3ccccc3)CC[C@@H]12 ?
**Result** inactive

**Query** Could you check what this test reported for C/C(=N\NC(N)=O)C(CN1CCCCC1)C(c1ccccc1)c1c(O)c2ccccc2oc1=O (centres undefined) ?
**Result** inactive

**Query** Which outcome was entered for the compound CCCCCCCCCCCCCCCCNCCCN(C)CCCN in this test?
**Result** inactive

**Query** Hello, I am checking results. What call was entered for CC(=O)Nc1cccc(N2C(=O)/C(=C\c3cccc(Oc4ccccc4)c3)S(=O)(=O)C2c2ccccc2)c1 (centres undefined) ?
**Result** inactive

**Query** Any idea what this test logged for CC1=NN(c2cccc(Cl)c2)C(=N/c2nc3ccccc3s2)/C1=C\c1ccc(Cl)cc1 ?
**Result** inactive

**Query** // outcome(item) with item = CCc1c[n+]2c(cc1C1=CN3c4ccccc4[C@]45CCN6C/C(=C/CO)[C@H](C[C@H]64)[C@@H]([C@@H]1O)[C@H]35)-c1[nH]c3ccccc3c1CC2
**Result** inactive

**Query** # lookup: test call for CCOc1ccncc1[N+](=O)[O-]
**Result** inactive

**Query** GET /call?item= Cn1ccc(C(=O)N2CCSC2=S)c(OCc2ccccc2)c1=O returns the recorded outcome of this test.
**Result** inactive
